In this section we review reported IC50 values for a set of molecules.
target: hNAMPT protein (Homo sapiens (Human)); experiment: NAMPT enzyme assay (TR-FRET/HTRF, BodiPY ligand, anti 6His-Tb); type: binding; details: NAMPT IC50 range class; read-out: IC50
Sequence (P43490 whole entry): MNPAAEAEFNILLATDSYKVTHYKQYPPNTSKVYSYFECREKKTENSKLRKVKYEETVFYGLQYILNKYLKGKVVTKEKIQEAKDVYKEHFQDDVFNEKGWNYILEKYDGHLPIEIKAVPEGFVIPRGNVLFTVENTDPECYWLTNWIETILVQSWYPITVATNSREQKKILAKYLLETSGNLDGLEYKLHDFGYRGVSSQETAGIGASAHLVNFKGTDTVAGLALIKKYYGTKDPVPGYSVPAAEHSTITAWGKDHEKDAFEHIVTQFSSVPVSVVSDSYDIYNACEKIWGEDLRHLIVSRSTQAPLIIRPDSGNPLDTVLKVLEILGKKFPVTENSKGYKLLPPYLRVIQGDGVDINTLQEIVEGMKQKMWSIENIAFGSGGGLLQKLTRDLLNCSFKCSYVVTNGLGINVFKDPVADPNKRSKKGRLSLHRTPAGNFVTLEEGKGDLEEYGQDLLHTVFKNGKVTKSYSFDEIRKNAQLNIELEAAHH

COc1cccc(-c2nc3cc(C(=O)NCCCc4cccnc4)ccc3nc2N2CCCCC2)c1	< 100 nM

Recorded IC50 (molecule O=C(NCCc1cnccn1)c1ccc2nc(-c3ccc(F)cc3)c(-c3ccc(F)cc3)nc2c1 ): 1000 to 2000 nM

Recorded IC50 (molecule O=C(NCCCn1ccnc1)c1ccc2nc(-c3ccccc3)c(-c3ccccc3Cl)nc2c1 ): 1000 to 2000 nM

Recorded IC50 (molecule NC(=O)c1cn2c(n1)CN(C(=O)c1ccc3nc(-c4ccc(F)cc4)c(-c4ccc(F)cc4)nc3c1)CC2 ): 2000 to 10000 nM
